Target: KCNQ 2/3 channels (HEK293 cells stably expressing human KCNQ2 and KCNQ3 subunits) (Homo sapiens, UniProt O43525+O43526)
Assay: KCNQ2/3 channel activation, thallium flux FLIPR assay with BTC-AM dye
Conditions: HEK293 cells expressing human KCNQ2 and KCNQ3; thallium flux, FLIPR
Method: The following example describes the assay that can be used to identify compounds that activate KCNQ 2/3 channels. HEK293 cells stably expressing human KCNQ2 and KCNQ3 subunits were seeded in 96-well, black-walled, clear-bottomed, poly-D-lysine coated plates (BD Biosciences, Bedford, Mass.) at a density of 1×10^5 cells per well 24 hours before the assay. […] The fluorescence signal was initiated by adding 100 μL of assay buffer containing 6 mM TlNO3 and 10 mM K2SO4. […]
# Lookup of reported EC50 keyed by entry
Observable: EC50

{"Compound": "O=C(C[C@@H]1C[C@@H]2CC[C@H]1C2)Nn1nc(-c2ccc(C(F)(F)F)cc2)c2ccccc2c1=O [Example 147]", "Recorded result": "100 to 500 nM"}
{"Compound": "O=C(CC12CC3CC(CC(C3)C1)C2)Nn1nc(C2CC2)c2ccccc2c1=O [Example 24]", "Recorded result": "< 100 nM"}
{"Compound": "CC(C)c1nn(NC(=O)Cc2ccc(Cl)cc2)c(=O)c2ccccc12 [Example 1]", "Recorded result": "100 to 500 nM"}
{"Compound": "O=C(Cc1ccc(Cl)cc1)Nn1nc(Cc2ccc(Cl)cc2)c2ccccc2c1=O [Example 145]", "Recorded result": "100 to 500 nM"}
{"Compound": "CC(C)(C)CC(=O)Nn1nc(C(F)(F)F)c2ccccc2c1=O [Example 48]", "Recorded result": "1000 to 10000 nM"}
{"Compound": "O=C(CC1CCCC1)Nn1nc(-c2ccc(Cl)cc2)c2ccccc2c1=O [Example 109]", "Recorded result": "< 100 nM"}
{"Compound": "Cc1ccc(-c2nn(NC(=O)CC34CC5CC(CC(C5)C3)C4)c(=O)c3ccccc23)cc1 [Example 138]", "Recorded result": "< 100 nM"}
{"Compound": "O=C(CC(F)(F)F)Nn1nc(-c2ccc(Cl)cc2)c2ccccc2c1=O [Example 124]", "Recorded result": "1000 to 10000 nM"}
